The reported measurements were obtained from patent US4996201A.

molecular target: central muscarinic agonist site; experiment: Receptor [3H]Cis-methyldioxalane Assay (RCMD), central muscarinic agonist site binding; conditions: rat cerebral cortex tissue; radiolabeled cis-methyldioxalane; head also prints (0.1 μM)
Please go through the items and note down their pIC50.
Please express pIC50 as -log10 of the molar concentration.

Looking up COC(=O)N(C)CC#CCN1CCCC1 [Example 1] , I found its pIC50 recorded as 7.84

Please fill in: pIC50 reported for COC(=O)N(C)CC#CCN(C)C [Example 2] = 7.20

Entry COC(=O)N(C)CC#CCN1CCCCCC1 [Example 1g] ; pIC50 = 6.02

Recorded result, COC(=O)N(C)CC#CCN1CCCCC1 [Example 1f] , pIC50: 5.80
